B1: CPEB3 Ribozyme (parent)
chain: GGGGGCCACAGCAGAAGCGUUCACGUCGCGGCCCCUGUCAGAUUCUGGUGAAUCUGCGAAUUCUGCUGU

- Variants of: B1
- Procedure text: self-cleavage, relative activity (ratio to wild type); higher = more cleavage; co-transcriptional
Assay endpoint: self-cleavage
Just the number.

Worked examples, 5 variants total:
GGGGGCCACAGCAGAAGCGUUGACGUCGCGGCCCCUGUCAGAUUCUGGCGAAUCUGCGAAUUCUGCUGU [C22G U49C] | 0.123
GCGGGCUACAGCAGAAGCGUUCACGUCGCGGCCCCUGUCAGAUUCUGGUGAAUCUGCGAAUUCUGCUGU [G2C C7U] | 0.0258
GGGGGCCACAGCAAAAGCGUUCACGUCGCGGCCCCUGUCAGAUUCUGAUGAAUCUGCGAAUUCUGCUGU [G14A G48A] | 0.868
GGGGGCCACAGCAGAAGCGUUCACGUCGCGGCCCCUGUCAGAUUCUGGAGAAUCUGCGAAUCCUGCUGU [U49A U62C] | 0.825
GGGGGCCACAGCGGAAGCGUUCACGUCGCGGCCCCCGUCAGAUUCUGGUGAAUCUGCGAAUUCUGCUGU [A13G U36C] | 0.816

Proceeding to the next variant to report its self-cleavage.
self-cleavage for GGGGGCCACAGCAGAAGCGUUCACGUCGCGGCCCCUGUCAGAUACUGGUGAAUCUGCGAAUUCUGUUGU [U44A C66U] ?
0.926
